B1: FBXO3 (parent)
chain: FIDTYSDVGRYIDHYAAIKKAWDD

- Variants of: B1
- PROTOCOL TEXT: protein stability index of a GFP-peptide fusion (GPS, HEK-293T) (PSI 1-6); higher = more stable;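 note: lentivirally expressed fusions sorted by FACS into six bins by GFP to DsRed ratio, PSI derived from sequencing read proportions per bin multiplied by bin number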
- DETAILS: c terminus: a fixed tail appended
Catalogue of protein stability index readings, one per entry.
Answer with a bare number; do not write a unit.

In the examples that follow, each entry is paired with its recorded protein stability index.
FIDTYSDVGRYIDHYAAIKKAWDH [D24H]
2.7
FIDTYSDVGRYIEHYAAIKKAWDD [D13E]
1.32
FIDTYSDVGRYFDHYAAIKKAWDD [I12F]
2.09
FIDTYSDVGTYIDHYAAIKKAWDD [R10T]
1.83
FPDTYSDVGRYIDHYAAIKKAWDD [I2P]
3

Note: attention shifts to another entry.
Prompt line: Tell me the measured protein stability index of FIATYSDVGRYIDHYAAIKKAWDD [D3A] , please.
Response line: 2
